Each item that follows carries a reported protein stability index.
Assay: protein stability index of a GFP-peptide fusion (GPS, HEK-293T) (PSI 1-6); higher = more stable;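 further: 24-mer peptide tiles fused after GFP, lentivirally expressed, FACS-sorted into six equal bins by GFP/DsRed ratio, decoded by Illumina sequencing, PSI is the read-weighted mean bin number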
Settings: treatment: MLN4924 1 uM, 8 h; c terminus: a fixed tail appended

Some solved entries appear below for comparison.
| biosequence | protein stability index |
| --- | --- |
| DSGDSKDIRLTLMEEVLLLGLKDK [GOLPH3L] | 3.25 |
| IRALLNLHTDVGSVRMRRAEKSVA [NEK8] | 2.53 |
| LITKNHSQEETSILRCWKCRKCIA [RNF180] | 2.98 |
| ASKSKGAAVKLADFGLAIEVQGDQ [CAMK2D] | 4.37 |
| LGIPYYETSVVAQFGIKDVFDNAI [RHOBTB2] | 2.14 |
| NDFVQVDPGQVGLINSNVSMVDLT [FAN1] | 4.24 |

Query: Give recorded protein stability index. AAFGHVQRAEMLPKTSGTRATSLG [CPOX]
Result: 3.91

Query: Give reported protein stability index value for EKEIPVLNELPVPMVARYIRINPQ [CPXM2]
Result: 3.25

Query: Specify measured protein stability index for LELAQFHNAHQLAAWCLHHICTNY [RHOBTB1] .
Result: 2.59

Query: Determine its reported protein stability index: TNNPRFDKMEGNPICVQIPWDKNP [CRY1]
Result: 3.69

Query: Give protein stability index for the following sequence: SVNDQCGFGVLRLDADAAQRVVYL [TSPAN10]
Result: 2.28

Query: Return reported protein stability index. Input sequence: SLRLWDTFGDHHKDRRFAYGRSDV [RHOBTB1]
Result: 2.92

Query: Answer with the recorded protein stability index for the sequence listed here: ILLQEIPIRSISLRSCYFSDPDCS [FBXO39]
Result: 2.91
